# assayNotes: Pharmacokinetics in control rats after gavage of JYPs
# Type: in vivo, Sprague Dawley (SD) rats
# conditionContext: male, Sprague-Dawley, rat, plasma, 2.16 g/kg/day, oral JYPs medium dose 2.160 g/kg/d (2nd of 3 values)

molecule	AUC(0-t)
C[C@H]1O[C@@H](O[C@H]2CC[C@@]3(C)[C@@H](CC[C@]4(C)[C@@H]3C=C[C@]35OC[C@@]6(CCC(C)(C)C[C@H]63)[C@H](O)C[C@]54C)[C@]2(C)CO)[C@H](O)[C@@H](O[C@@H]2O[C@H](CO)[C@@H](O)[C@H](O)[C@H]2O)[C@H]1O	96.8 ng·h/mL
C[C@H]1O[C@@H](O[C@H]2CC[C@@]3(C)[C@@H](CC[C@]4(C)[C@@H]3C=C[C@]35OC[C@@]6(CCC(C)(C)C[C@H]63)[C@@H](O)C[C@]54C)[C@]2(C)CO)[C@H](O)[C@@H](O[C@@H]2O[C@H](CO)[C@@H](O)[C@H](O)[C@H]2O)[C@H]1O	149 ng·h/mL
CCCC=C1OC(=O)C2=C1CCC1C3C=C4C(=O)OC(=CCCC)C4(CC3)C21 (stereo not shown) [Levistilide A]	21.5 ng·h/mL
CCC/C=C1\OC(=O)C2=C1CCC=C2 [Z-Ligustilide]	32.7 ng·h/mL
